# experimental_system: BIKE (Homo sapiens, UniProt Q9NSY1)
# Construct: gene BMP2K; catalytic domain-containing construct
# Sequence (Q9NSY1 whole entry, the tested form may be a part): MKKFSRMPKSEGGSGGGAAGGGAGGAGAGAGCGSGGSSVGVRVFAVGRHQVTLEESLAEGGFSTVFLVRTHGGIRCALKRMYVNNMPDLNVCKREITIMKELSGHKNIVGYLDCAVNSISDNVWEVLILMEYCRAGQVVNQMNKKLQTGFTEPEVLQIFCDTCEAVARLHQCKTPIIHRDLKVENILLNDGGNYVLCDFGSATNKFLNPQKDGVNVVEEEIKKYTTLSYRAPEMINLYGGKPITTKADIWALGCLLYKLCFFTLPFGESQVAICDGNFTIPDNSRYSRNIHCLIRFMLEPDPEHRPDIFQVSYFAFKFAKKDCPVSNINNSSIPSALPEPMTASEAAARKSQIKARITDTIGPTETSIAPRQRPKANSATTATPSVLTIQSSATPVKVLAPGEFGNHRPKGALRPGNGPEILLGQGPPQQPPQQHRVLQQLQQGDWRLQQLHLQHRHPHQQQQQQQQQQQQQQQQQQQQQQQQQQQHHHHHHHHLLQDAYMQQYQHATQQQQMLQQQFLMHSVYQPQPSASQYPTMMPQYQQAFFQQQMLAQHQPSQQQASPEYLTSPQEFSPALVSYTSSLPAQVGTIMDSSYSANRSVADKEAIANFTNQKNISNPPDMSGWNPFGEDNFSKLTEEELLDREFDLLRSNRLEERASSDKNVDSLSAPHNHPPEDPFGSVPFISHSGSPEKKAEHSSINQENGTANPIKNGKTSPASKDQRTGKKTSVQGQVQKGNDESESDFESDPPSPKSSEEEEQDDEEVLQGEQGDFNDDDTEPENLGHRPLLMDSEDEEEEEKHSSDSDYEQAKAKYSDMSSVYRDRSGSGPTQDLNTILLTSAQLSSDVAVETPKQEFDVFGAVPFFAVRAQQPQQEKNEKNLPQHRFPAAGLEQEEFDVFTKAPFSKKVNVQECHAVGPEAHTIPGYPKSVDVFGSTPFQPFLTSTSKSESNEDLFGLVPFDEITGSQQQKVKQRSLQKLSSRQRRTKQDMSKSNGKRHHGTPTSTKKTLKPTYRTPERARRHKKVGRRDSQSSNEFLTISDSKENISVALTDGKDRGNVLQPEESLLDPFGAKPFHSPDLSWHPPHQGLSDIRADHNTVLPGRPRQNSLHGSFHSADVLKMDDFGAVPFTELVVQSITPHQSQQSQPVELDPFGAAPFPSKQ
# assay_name: biochemical
# Design: Thermal shift assay (DSF, SYPRO Orange), 2 uM kinase domain, mean delta Tm of triplicates versus DMSO
# condition_description: read-out: BIKE
Listing of recorded ΔTm at 12.5 µM by entry.
Lab book: enter the figure in °C, no units written.

// query Can you share its ΔTm at 12.5 µM? I mean this compound: CS(=O)(=O)CCNCc1ccc(-c2ccc3ncnc(Nc4ccc(OCc5cccc(F)c5)c(Cl)c4)c3c2)o1
// result 1.13

New cases:
// query Can you share its ΔTm at 12.5 µM? I mean this compound: CCCS(=O)(=O)Nc1ccc(F)c(C(=O)c2c[nH]c3ncc(-c4ccc(Cl)cc4)cc23)c1F
// result 4.24

// query Can you share its ΔTm at 12.5 µM? I mean this compound: Cc1c(Cn2c(C)nc3c(C(=O)O)cc(N4CCOCC4)cc32)cccc1C(F)(F)F
// result 0.39

// query Can you share its ΔTm at 12.5 µM? I mean this compound: CCN1CCN(c2ccc(Nc3cc(N(C)C(=O)Nc4c(Cl)c(OC)cc(OC)c4Cl)ncn3)cc2)CC1
// result 0.763

The reported measurements were obtained from paper PMC4780864.
